Attribution: PubChem BioAssay (Tox21)

- tested target: Beta-2 adrenergic receptor (Homo sapiens)
- protocol details: Adrenergic beta2 receptor (ADRB2) small molecule antagonists, cell-based qHTS assay (AID 1963592); note: potency is the fitted concentration of half-maximal effect; nearly all actives have a fitted effect of over 50% in size
- condition summary: CHO-ADRB2 cells, isoproterenol-stimulated cAMP HTRF ratio, 0.5 h; series mostly up to 92.4 µM
Results filed as inconclusive are left out. Calls of active or inactive are those of the source. Calls come from the whole dose curve.
Here the recorded Potency is given for each entry.

compound=O=C1NCN(c2ccccc2)C12CCN(CCCC(c1ccc(F)cc1)c1ccc(F)cc1)CC2 recorded_result="23.7 µM (active)"
compound="CCN(CC)C(=O)Nc1ccc(OCC(O)CNC(C)(C)C)c(C(C)=O)c1 (stereo unspecified)" recorded_result="0.0473 µM (active)"
compound="COc1cc2c(cc1OC)C(=O)C(CC1CCN(Cc3ccccc3)CC1)C2 (stereo unspecified)" recorded_result="18.8 µM (active)"

Asked: I would be grateful if you could share the reported Potency for CCN(CCCCOC(=O)c1ccc(OC)c(OC)c1)C(C)Cc1ccc(OC)cc1 (stereo unspecified) .
Given back: 13.3 µM (active)

Asked: Now give it for CC(C)OC(=O)c1cc2c(OCC(O)CNC(C)(C)C)cccc2[nH]1 (stereo unspecified) too.
Given back: 0.0033 µM (active)

Asked: Same again, this time with CC(C)(C)NCC(O)COc1ccc(NC(=O)NC2CCCCC2)cc1 (stereo unspecified)
Given back: 4.73 µM (active)

Asked: Field entry: COC(=O)CCc1ccc(OCC(O)CNC(C)C)cc1 (stereo unspecified)
Given back: 9.44 µM (active)
